Experiment: Clearance in human at 2.8 g, po by liquid chromatography-tandem mass spectrometry method
Format: ADME, organism-based
Conditions: in vivo
reported-metric: CL/F (mL/h/kg)
Give bare numbers, in mL/h/kg.

CC(C)n1nccc1-c1ncccc1COc1cccc(O)c1C=O has a reported CL/F of 5.4

###

Test: Tmax in human at 20 mg, po measured up to 240 hrs by HPLC method
Format: ADME, organism-based
Conditions: in vivo
reported-metric: Tmax (h)
Answers are plain numbers, in h.

Cc1cc2c(C(C)C)c(O)c(O)c(C=O)c2c(O)c1-c1c(C)cc2c(C(C)C)c(O)c(O)c(C=O)c2c1O has a reported Tmax of 4.6

###

Test: Clearance in mouse at 1 mg/kg, iv
Format: ADME, organism-based
Conditions: in vivo
reported-metric: clearance (mL/min/kg)
Give bare numbers, in mL/min/kg.

COCCNc1cc(NC(=O)N2CCCc3cc(CN4CCN(C)CC4=O)c(C=O)nc32)ncc1C#N [FGF401] has a reported clearance of 28

###

Test: Drug excretion in human at 20 mg/kg, IM measured for 24 hrs
Type: ADME, organism-based
Conditions: in vivo, read-out: Drug excretion
reported-metric: dose excreted at 24 h (%)
One number for each entry, in %.

[H]/N=C(/N)N[C@H]1[C@H](O)[C@@H](O)[C@H](O[C@@H]2O[C@@H](C)[C@](O)(C=O)[C@H]2O[C@@H]2O[C@@H](CO)[C@H](O)[C@@H](O)[C@@H]2NC)[C@@H](N/C(N)=N\[H])[C@@H]1O has a reported dose excreted at 24 h of 39
